- Tested on: EKVX NSCLC
- test: NCI-60 one-dose screen, 48 h (100 = growth as untreated, 0 = no growth, -100 = all killed)
- assayContext: 10 µM unless noted
- Method: Growth inhibition of the EKVX human Non-Small Cell Lung tumor cell line is measured as a screen for anti-cancer activity. Cells are grown in 96 well plates and exposed to the test compound for 48 hours. Compounds are tested at a single concentration, which is 10^-5 M for most compounds. The reported endpoint is percent growth (GI% or GIPRCNT), where numbers from 0 - 100% represent growth inhibition, and numbers from -100% - 0 represent cell death. […]
The panel holds about 83,000 compounds, 20% with a hit somewhere; the sample as a whole holds those more often.
Rule: growth below 70% gives Satisfied, anything at or above gives Not satisfied.

compound	cat
O=C(N/N=C/c1ccc(Cl)cc1)c1cc(-c2cc3ccccc3o2)nn1-c1ccccc1	Not satisfied
C=C1C(=O)O[C@H]2[C@H]1CC/C(C=Nc1c(N)cc(C(F)(F)F)cc1C(F)(F)F)=C\CC[C@@]1(C)O[C@@H]21	Satisfied
O=C1CSC(c2c(F)cccc2Cl)N1NC(=O)C(O)(c1ccccc1)c1ccccc1 (centres undefined)	Not satisfied
CN(C)C[C@@H]1CCn2cc(c3ccccc32)C2=C(C(=O)NC2=O)c2cn(c3ccccc23)CCO1	Satisfied
COc1ccc2c(c1)cn1c3ccc(O)cc3nc(N)c21	Satisfied
FC(F)c1nc2ccccc2n1-c1nc(N2CCOCC2)nc(N2CCOCC2)n1	Satisfied
Cc1cc(N(CCNc2ccnc3cc(Cl)ccc23)Cc2ccc3c(c2)OCO3)nc(N2CCN(C)CC2)n1	Not satisfied
Cc1ccc(Nc2nccc(N(C)c3ccc4c(C)n(C)nc4c3)n2)cc1S(N)(=O)=O	Satisfied
Fc1ccc(NCc2cn(-c3ccccc3)nc2-c2ccc(OCc3ccccc3)cc2)cc1Cl	Not satisfied

====

Listed next: entries and their corresponding growth.
- Test system: OVCAR-8 ovarian
- test: NCI-60 one-dose screen, 48 h (100 = growth as untreated, 0 = no growth, -100 = all killed)
- assayContext: 10 µM unless noted
About 83,000 compounds went through this panel and 20% of them were active in at least one assay; those are over-represented in the sample as a whole.
metric: growth (%)

structure	valueObserved
N#Cc1c(-c2ccc(C(F)(F)F)cc2)cc(NCC2CCS(=O)(=O)CC2)n2c1nc1ccccc12	93.3
CCCCCCCC(=O)SCC/C=C/[C@@H]1CC(=O)NCc2nc(co2)C2=N[C@@](C)(CS2)C(=O)N[C@@H](C(C)C)C(=O)O1	0.95
CC(C)(C)c1nc(-c2cccc(NS(=O)(=O)c3c(F)cccc3F)c2F)c(-c2ccnc(N)n2)s1	94.7
O=C(NO)c1ccc(Cn2c(=O)n(CCc3ccccc3)c(=O)c3ccccc32)cc1	20.2

====

Listed next: entries and their corresponding growth.
- Test system: SK-MEL-28 melanoma
- test: NCI-60 one-dose screen, 48 h (100 = growth as untreated, 0 = no growth, -100 = all killed)
- assayContext: 10 µM unless noted
This is part of a sample that, as a whole, favours compounds with a hit. Of some 83,000 tested, about 20% had one in any assay.
metric: growth (%)

compound	metric	unitLabel	valueObserved
C=CCCCC(=O)CCC(=O)OCC1O[C@@H](O[C@@H]2C(O)[C@@H](OC(C)=O)C(C)O[C@H]2O[C@H](CC=C)CCCCC)C(O)[C@@H](OC(=O)/C(C)=C/C)[C@@H]1OC(=O)/C=C/c1ccccc1 (some centres undefined)	growth	%	33
O=C1CC(c2ccc3c(c2)OCO3)c2ncn(-c3ccc(Cl)cc3)c2N1 (centres undefined)	growth	%	55.4
Cc1ccc(-c2nc3ccc(Cl)cn3c2NC2CCCCC2)o1	growth	%	100
CC(C)(C)C(=O)OCOP(=O)(OCOC(=O)C(C)(C)C)C1CCCN(OC(=O)c2ccccc2)C1=O (centres undefined)	growth	%	-11.1
